# Tested on: MCF7
# test.description: Induction of apoptosis in human MCF7 cells assessed as late apoptotic cells at IC50 after 48 hrs by annexin V-FITC/propidium iodide staining based flow cytometric analysis (reference value: 0.0%)
# Format: functional
Activity under 4% gets T, anything at or over 4% gets F.

1. C=C1CC[C@@H]2[C@](C)(CO)[C@H](O)CC[C@@]2(C)[C@@H]1CC1CN(Cc2ccccc2)[C@@]2(C(=O)c3cccc4cccc2c34)[C@]12C(=O)OC[C@H]2O (stereo not given in full)    F
2. C=C1CC[C@@H]2[C@](C)(CO)[C@H](O)CC[C@@]2(C)[C@@H]1CC1CN(Cc2ccccc2)[C@@]2(C(=O)Nc3ccc(Br)cc32)[C@]12C(=O)OC[C@H]2O (stereo not given in full)    F
3. C=C1CC[C@@H]2[C@](C)(CO)[C@H](O)CC[C@@]2(C)[C@@H]1CC1CN(Cc2ccccc2)[C@@]2(C(=O)Nc3ccc(C)cc32)[C@]12C(=O)OC[C@H]2O (stereo not given in full)    T
4. C=C1CC[C@@H]2[C@](C)(CO)[C@H](O)CC[C@@]2(C)[C@@H]1CC1CN(Cc2ccccc2)[C@@]2(C(=O)Nc3ccc(Cl)cc32)[C@]12C(=O)OC[C@H]2O (stereo not given in full)    F
